Hello, the source for this data is patent US7880007B2, in case you need it.

Listing of recorded Emax by entry.
target: M1 muscarinic receptor (Homo sapiens, UniProt P11229); construct: expressed in transfected cells; host or cells: CHO (M1-CHO); test: Functional mobilization of intracellular calcium (FLIPR), M1-CHO cells; format: cell-based; details: 100% efficacy = maximum response obtained with the Carbachol control
Sequence (P11229 whole entry): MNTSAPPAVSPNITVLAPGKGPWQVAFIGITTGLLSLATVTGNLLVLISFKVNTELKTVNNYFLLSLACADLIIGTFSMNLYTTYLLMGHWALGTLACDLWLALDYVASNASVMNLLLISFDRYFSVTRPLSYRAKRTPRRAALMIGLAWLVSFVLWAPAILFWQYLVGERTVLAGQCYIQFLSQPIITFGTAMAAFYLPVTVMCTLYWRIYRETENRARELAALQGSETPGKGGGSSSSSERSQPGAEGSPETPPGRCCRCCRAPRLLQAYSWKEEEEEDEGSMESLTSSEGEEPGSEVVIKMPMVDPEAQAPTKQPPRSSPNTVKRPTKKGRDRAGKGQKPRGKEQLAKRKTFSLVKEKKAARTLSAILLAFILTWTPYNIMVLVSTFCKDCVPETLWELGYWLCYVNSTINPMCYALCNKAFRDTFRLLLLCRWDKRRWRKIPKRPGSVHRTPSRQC
outcome-measure: Emax

> print(dat)
                                    compound                              assay.system    reported
 1  COc1ccc(F)cc1C1(OC)CCN(C[C@H]2C[C@H]3C=C[C@H]2C3)CC1 [Compound 292]  M1 muscarinic receptor (Homo sapiens, UniProt P11229)  25 to 100%
 2  COc1ccccc1C1CCN(C2CCC(C)CC2)CC1 (stereo not drawn) [Compound 158]  M1 muscarinic receptor (Homo sapiens, UniProt P11229)  25 to 100%
 3  O=C(COc1ccccc1C1CCN([C@H]2C[C@H]3CC[C@H]2C3)CC1)c1ccccc1 [Compound 269]  M1 muscarinic receptor (Homo sapiens, UniProt P11229)  25 to 100%
 4  COc1ccc(C2CCN(CC3C[C@H]4CC[C@H]3C4)CC2)c(OC)c1 (stereo partly drawn) [Compound 159]  M1 muscarinic receptor (Homo sapiens, UniProt P11229)       < 25%
 5  COc1ccc(C)cc1C1CCN([C@H]2CC[C@H]3CC[C@H]2C3)CC1 [Compound 185]  M1 muscarinic receptor (Homo sapiens, UniProt P11229)  25 to 100%
 6  COc1ccccc1C1(C#N)CCN(C2CCCCCC2)CC1 [Compound 279]  M1 muscarinic receptor (Homo sapiens, UniProt P11229)       < 25%
 7  COc1ccc(-c2ccncc2)cc1C1CCN([C@@H]2C[C@@H]3CC[C@H]2C3)CC1 [Compound 124]  M1 muscarinic receptor (Homo sapiens, UniProt P11229)       < 25%
 8  COc1ccc(-c2ccc(S(C)(=O)=O)cc2)cc1C1CCN(C2CCCCC2)CC1 [Compound 268]  M1 muscarinic receptor (Homo sapiens, UniProt P11229)  25 to 100%
 9  COc1ccccc1C1CCN(CC2CC2)CC1 [Compound 346]  M1 muscarinic receptor (Homo sapiens, UniProt P11229)       < 25%
10  COc1ccccc1C1CCN(C2CC3CCC(C3)C2)CC1 (stereo not drawn) [Compound 169]  M1 muscarinic receptor (Homo sapiens, UniProt P11229)  25 to 100%
11  COc1ccc(C(=O)c2ccccc2)cc1C1CCN([C@H]2C[C@H]3CC[C@H]2C3)CC1 [Compound 50]  M1 muscarinic receptor (Homo sapiens, UniProt P11229)  25 to 100%
12  CCOC(=O)N1CCC(CN2CCC(c3ccccc3C)CC2)CC1 [Compound 306]  M1 muscarinic receptor (Homo sapiens, UniProt P11229)  25 to 100%
13  COc1cc(F)c(F)c(C2CCN(C3CC4CCC(C4)C3)CC2)c1 (stereo not drawn) [Compound 310]  M1 muscarinic receptor (Homo sapiens, UniProt P11229)       < 25%
14  COc1ccccc1[C@H]1CCN([C@@H]2C[C@H]3CC[C@H]2C3)C[C@@H]1O [Compound 117]  M1 muscarinic receptor (Homo sapiens, UniProt P11229)       < 25%
15  CNC(=O)c1ccc(-c2ccc(OC)c(C3CCN(C4C[C@H]5CC[C@H]4C5)CC3)c2)cc1Cl (stereo partly drawn) [Compound 328]  M1 muscarinic receptor (Homo sapiens, UniProt P11229)       < 25%
16  COc1ccc(-c2ccc(C(=O)Nc3nccs3)cc2)cc1C1CCN(C2CC3CCC(C3)C2)CC1 (stereo not drawn) [Compound 313]  M1 muscarinic receptor (Homo sapiens, UniProt P11229)       < 25%
17  Fc1ccccc1-c1ccccc1C1CCN(C2CC3CC[C@H]2C3)CC1 (stereo in doubt) [Compound 10]  M1 muscarinic receptor (Homo sapiens, UniProt P11229)       < 25%
18  COc1ccc(F)cc1C1CCN(CC2CCOCC2)CC1 [Compound 163]  M1 muscarinic receptor (Homo sapiens, UniProt P11229)  25 to 100%
